biological target: Tyrosine-protein phosphatase non-receptor type 1 (Homo sapiens)
Sequence (P18031 whole entry): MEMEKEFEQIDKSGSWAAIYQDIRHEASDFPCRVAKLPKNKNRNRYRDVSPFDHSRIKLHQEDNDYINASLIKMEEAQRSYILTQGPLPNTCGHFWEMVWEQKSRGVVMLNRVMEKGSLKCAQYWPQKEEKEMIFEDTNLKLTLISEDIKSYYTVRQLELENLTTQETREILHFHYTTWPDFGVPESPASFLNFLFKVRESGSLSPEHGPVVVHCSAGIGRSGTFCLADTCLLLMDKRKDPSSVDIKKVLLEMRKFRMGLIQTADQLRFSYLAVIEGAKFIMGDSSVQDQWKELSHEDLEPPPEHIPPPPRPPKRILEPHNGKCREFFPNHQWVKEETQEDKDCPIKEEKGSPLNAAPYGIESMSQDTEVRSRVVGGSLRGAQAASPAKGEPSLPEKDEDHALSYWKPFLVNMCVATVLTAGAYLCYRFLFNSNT
property measured: IC50 (µM)

In [3]: df
Out[3]:
                            compound_smiles  property_measured  obs_value
0  O=C(O)c1cc(-c2ccc(/C=C3\Sc4ccccc4C3=O)o2)ccc1O               IC50         15
1  Cc1cc(C(=O)O)ccc1-c1ccc(C=C2C(=O)c3ccccc3C2=O)o1               IC50       12.3

----------
target: Tyrosine-protein phosphatase non-receptor type 22 (Homo sapiens)
Sequence (Q9Y2R2 whole entry): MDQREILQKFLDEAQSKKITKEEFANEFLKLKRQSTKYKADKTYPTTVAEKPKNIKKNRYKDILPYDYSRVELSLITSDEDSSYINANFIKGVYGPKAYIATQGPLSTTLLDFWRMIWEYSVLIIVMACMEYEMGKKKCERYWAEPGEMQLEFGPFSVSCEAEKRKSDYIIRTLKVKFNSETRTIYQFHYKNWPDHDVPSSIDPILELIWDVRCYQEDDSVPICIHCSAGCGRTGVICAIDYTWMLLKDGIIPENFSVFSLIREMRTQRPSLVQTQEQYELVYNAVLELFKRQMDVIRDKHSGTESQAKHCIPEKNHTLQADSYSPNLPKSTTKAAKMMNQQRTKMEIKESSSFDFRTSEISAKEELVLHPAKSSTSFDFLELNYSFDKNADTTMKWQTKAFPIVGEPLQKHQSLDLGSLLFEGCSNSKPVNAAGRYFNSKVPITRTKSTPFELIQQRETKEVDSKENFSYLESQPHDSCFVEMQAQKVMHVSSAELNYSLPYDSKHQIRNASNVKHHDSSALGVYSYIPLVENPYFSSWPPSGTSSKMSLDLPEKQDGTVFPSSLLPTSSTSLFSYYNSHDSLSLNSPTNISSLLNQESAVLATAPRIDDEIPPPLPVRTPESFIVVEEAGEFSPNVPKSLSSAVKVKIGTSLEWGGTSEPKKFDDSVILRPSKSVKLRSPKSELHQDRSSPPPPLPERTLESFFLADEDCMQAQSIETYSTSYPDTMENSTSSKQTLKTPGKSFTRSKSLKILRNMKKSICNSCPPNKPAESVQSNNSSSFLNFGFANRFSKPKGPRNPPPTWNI
pIC50: −log10 of the molar value.
property measured: pIC50

In [3]: df
Out[3]:
                            compound_smiles  property_measured  obs_value
0  Cc1cc(C(=O)O)ccc1-c1ccc(C=C2C(=O)c3ccccc3C2=O)o1              pIC50       4.70
